- Tested on: PC-3
- method_description: Antiproliferative activity against PC-3 cancer cells
- Assay type: functional, cell-based
- assay_context: Homo sapiens
pIC50: −log10 of the molar value.
measurement_name: pIC50

Known results for compounds:
Prompt: Return pIC50 (reported value) for this compound: O=C(CS)NCCCCCC(=O)Nc1cccc2cccnc12
Completion: 4.48

Prompt: Return pIC50 (reported value) for this compound: CN(C)c1ccc(C(=O)NCCCCCNC(=O)CS)cc1
Completion: 3.96

1. O=C(CS)NCCCCCNC(=O)c1ccc(-c2ccccc2)cc1
2. O=C(CS)NCCCCCC(=O)Nc1cnc2ccccc2c1
Prompt: Lab note: check whether 1 or 2 has the lower measured pIC50. Use the label to indicate which entry you chose.
Completion: 1
(1: 4.00, 2: 4.30)

----------
- Tested on: HeLa
- method_description: Antiproliferative activity towards human HeLa cancer cells
- Type: functional, cell-based
pIC50: −log10 of the molar value.
measurement_name: pIC50

Prompt: Would you please give the reported pIC50 of CN(C)c1ccc(C(=O)NCCCCCNC(=O)CS)cc1 with HeLa?
Completion: 3.97

I. O=C(CS)NCCCCCNC(=O)c1ccc(-c2ccccc2)cc1
II. O=C(CS)NCCCCCC(=O)Nc1cccc2cccnc12
Prompt: Lab note: check whether I or II has the lower measured pIC50. Use the label to indicate which entry you chose.
Completion: I
(I: 4.10, II: 4.52)
